Just for reference, the supplement of paper PMC9170038 is where these values come from.

Test system: MS2 coat protein
Assay: apparent KD of MS2 coat protein; designed switch direction (-1 OFF switch, 1 ON switch): 1; higher = weaker reporter binding
Details: Eterna round: R98; input ligand: none
Item-by-item account of apparent KD of MS2 coat protein
Recorded Endpoint: apparent KD of MS2 coat protein (nM)

>  <Sequence Record>
CAUGUCCUCACAGGAUAUGCUGGACUUUGUCCAGCAGAAGGGUGAUAACAUGAGGAUCACCCAUGUGGACAUGAUAUAUUUAAG [Mat - Same State NG 1 - Eli mod - D95]

>  <Result>
106

$$$$
>  <Sequence Record>
GGACUCACUUGAGGAUAUCGAGUGGAAUACACUCGAGAAGGCAGGAAAACCUGAGGAUCACCCAGGUAAGAGUCCAAUAAUAAU [Same State NG1 - A3C, U17G Submission 3C]

>  <Result>
17.9

$$$$
>  <Sequence Record>
AUAAUAACUUGAGGAUAUGCUCAGGAAUACUGAGCAGAAGGCAGGGAAACCUGAGGAUCACCCAGGUAAAUAAUAAUAAUAAUA [Same State NG1 - A3C, U17G Submission 1B]

>  <Result>
24.5

$$$$

----------
Test system: MS2 coat protein
Experiment: apparent KD of MS2 coat protein; designed switch direction (-1 OFF switch, 1 ON switch): -1; higher = weaker reporter binding
Details: input ligand: FMN 200 uM

>  <Sequence Record>
AGUACUAUGCGAGCUGACUUGCGUAGUGCAGCAAGUGAAACAUGAGGAUCACCCAUGUCCUCAUUUGCUCGUCUUAU [Mat - Sensor v3 - Turn-off var 2 - D1] (Eterna round: R96, puzzle: Sensor v3, turn-off variant 2)

>  <apparent KD of MS2 coat protein [nM]>
31.1

$$$$
>  <Sequence Record>
AAUAAUCAUGUAGGAUAUGCGUGGCAAAGCUAUGCAGAAGGACAUGAGGAUCACCCAUGUUCUAGCGUCUGCGUACAGAUGCUA [Mat - Exclusion NG 1 - Mod of JL - D80] (Eterna round: R96, puzzle: Exclusion NG 1)

>  <apparent KD of MS2 coat protein [nM]>
246

$$$$
>  <Sequence Record>
GAUCCACAUGAGGAUCACCCAUGUUAGGAUAUUCAGCCUUGGUCACGGGAGUCAGGGCGGAGAAGGAACCCUUU [Eternabot (L2) Solution 16] (Eterna round: R97, puzzle: Exclusion 1)

>  <apparent KD of MS2 coat protein [nM]>
14.4

$$$$
>  <Sequence Record>
UAUAUGUCAGGAUAUUAGUUGAGGUGGAAUUUAGCCUAUGCUGAGAAGGGACAUGAGGAUCACCCAUGUUCCUC [JR_Ex4_Sub011] (Eterna round: R97, puzzle: Exclusion 4)

>  <apparent KD of MS2 coat protein [nM]>
93.9

$$$$

----------
Item-by-item account of apparent KD of MS2 coat protein
Test system: MS2 coat protein
Assay: apparent KD of MS2 coat protein; designed switch direction (-1 OFF switch, 1 ON switch): -1; higher = weaker reporter binding
Conditions: input ligand: FMN 200 uM

>  <Sequence Record>
AAAGUAGACCUUGAAGCAUCGUAAACAUGAGGAUCACCCAUGUAGGAUAUGGGUAGCUAUGCUAGCCAGAAGGAUGUGUGGUGA [Eternabot solution 16] (Eterna round: R96, puzzle: Exclusion NG 3)

>  <Target Or System>
MS2 coat protein

>  <Readout Units>
nM

>  <apparent KD of MS2 coat protein>
335

$$$$
>  <Sequence Record>
UUAAUUAAUUAAGGCUGAAGAUCACAUGAGGAUCACCCAUGUAAGGAUAUCAGCUCGUGUAGAGCUGAGAAGGUACAUGCAGCC [ExNG3/18-B3] (Eterna round: R96, puzzle: Exclusion NG 3)

>  <Target Or System>
MS2 coat protein

>  <Readout Units>
nM

>  <apparent KD of MS2 coat protein>
50.6

$$$$
>  <Sequence Record>
CUGAGCUGAGGAUAUACAUGAGGAUCACCCAUGUUUUGUAGCUAGUGAAGAAGUAGAUGUAGAAGGCAGUUCGG [Mod of JL 25 - Jieux - Exclusion 3] (Eterna round: R97, puzzle: Exclusion 3)

>  <Target Or System>
MS2 coat protein

>  <Readout Units>
nM

>  <apparent KD of MS2 coat protein>
167

$$$$
>  <Sequence Record>
UUAUUAAUUAAUAUUAUAAGAUCACAUGAGGAUCACCCAUGUCAGGAUAUCAGCUCGUGUAGAGCUGAGAAGGGACAAAUAAUA [ExNG3/15-B3] (Eterna round: R96, puzzle: Exclusion NG 3)

>  <Target Or System>
MS2 coat protein

>  <Readout Units>
nM

>  <apparent KD of MS2 coat protein>
576

$$$$
>  <Sequence Record>
GGCAUCGGAGGAUAUACUUAUGGUGAUGCCCGAAGCUUUCUACUUGAGGAUCACCCAAGUAGAAGGCCGAUGCC [jl-ex2.4.79 ViennaUCT mod] (Eterna round: R97, puzzle: Exclusion 2)

>  <Target Or System>
MS2 coat protein

>  <Readout Units>
nM

>  <apparent KD of MS2 coat protein>
11.2

$$$$
>  <Sequence Record>
GUUGGUAAGUCAGGAUAUCCCUGUAAUGGCAGCGGAGAAGGGACAUGAGGAUCACCCAUGUGAACCUCCGGCGGGUAAACCCGC [Issoange] (Eterna round: R96, puzzle: Exclusion NG 1)

>  <Target Or System>
MS2 coat protein

>  <Readout Units>
nM

>  <apparent KD of MS2 coat protein>
103

$$$$
>  <Sequence Record>
CUCGUGCAGCAAAGCUGUACGAGUACAUGAGGAUCACCCAUGUAGGAUAUGGUACGCUUUGCGUGCUAGAAGGACGUGUGUAUG [Mat - Exclusion NG 3 - Mod of JL - D90] (Eterna round: R96, puzzle: Exclusion NG 3)

>  <Target Or System>
MS2 coat protein

>  <Readout Units>
nM

>  <apparent KD of MS2 coat protein>
75.4

$$$$
>  <Sequence Record>
CUUGUUUAUGUAGGAUAUGCCUGGCGUGCCUUUGCAGAAGGACAUGAGGAUCACCCAUGUAACAUGAGGCUAACCCUUGUCGCC [salish99_ExNG1_r04_118] (Eterna round: R96, puzzle: Exclusion NG 1)

>  <Target Or System>
MS2 coat protein

>  <Readout Units>
nM

>  <apparent KD of MS2 coat protein>
86.7

$$$$
>  <Sequence Record>
AUCCUACAUGAGGAUCACCCAUGUCAGGAUAUCCAAGAAAUCUGGCCGUAUCGGCCAGGGAGAAGGGACAUGGU [jl-ex1-4.63 ViennaUCT mod] (Eterna round: R97, puzzle: Exclusion 1)

>  <Target Or System>
MS2 coat protein

>  <Readout Units>
nM

>  <apparent KD of MS2 coat protein>
85.3

$$$$

----------
System: MS2 coat protein
Assay: apparent KD of MS2 coat protein; higher = weaker reporter binding
Settings: Eterna round: R107; input ligand: tryptophan 2.4 mM
Item-by-item account of apparent KD of MS2 coat protein

>  <Sequence Record>
AAGAAGUUUUGAUUUUUAUGAAGUAGUGAUACCAGUCAAGAAAGAGACCCUUGGCAGCGCAACAUGAGGAUCACCCAUGUAAGAA [A random design]

>  <apparent KD of MS2 coat protein>
0.0242 µM

$$$$
>  <Sequence Record>
AACCGAGGCUAUCCUCUCCGCCUAUGUGAUACCAGAAUAAUUUUAUUCCCUUGGCAGCAUGACAUGAGGAUCACCCAUGUCUCUU [SSTheo A #11]

>  <apparent KD of MS2 coat protein>
0.0173 µM

$$$$
>  <Sequence Record>
AUACAUGAGGAUCACCCAUGUAUAGUUGAAGGAGCGACCAGAGGGUCAGGUAGGUCGCAACACAUGAGGAUCACCCAUGUAUCGA [DOUBLE!!! :-D #7]

>  <apparent KD of MS2 coat protein>
0.0346 µM

$$$$
>  <Sequence Record>
UGGUACAUGAGGAUCACCCAUGUUCCAGAUACCAGUGUCCCGCUGCACCCUUGGCAGCUGGUGGUACAUGAGGAUCACCCAUGUG [Exclusion Theophylline A GF11]

>  <apparent KD of MS2 coat protein>
0.039 µM

$$$$
>  <Sequence Record>
CAAGAAUGACGUACAGAUAACAAUAACGAUACCAGUACAUCAUUAUACCCUUGGCAGCGUUUCACAUGAGGAUCACCCAUGUACA [theeternabot_exclusion_MS2_Theo_A_14]

>  <apparent KD of MS2 coat protein>
0.0176 µM

$$$$
>  <Sequence Record>
ACAUGAGGAUCACCCAUGUCAGGGCACGAUACCAGCUGAUCCGAUGGCCCUUGGCAGCGUUACGUGUGGUCAUGAGGAUCACCCG [pjbmullin]

>  <apparent KD of MS2 coat protein>
0.0647 µM

$$$$

----------
System: MS2 coat protein
Assay: apparent KD of MS2 coat protein; designed switch direction (-1 OFF switch, 1 ON switch): 1; higher = weaker reporter binding
Settings: input ligand: FMN 200 uM
Decide by apparent KD of MS2 coat protein: equal to or exceeding 0.06 µM means 1, less means 0.

>  <Sequence Record>
AUAAGACACAUGAGGAUCACCCAUGUGGCCGUAGUCGGCUCACAGGAUAUCAAGCUACUAGUGCUUGAGAAGGGUGAGACAAGC [Raar Mod] (Eterna round: R96, puzzle: Same State NG 3)

>  <Discrete Label>
0

$$$$
>  <Sequence Record>
GGAAUAUUUACAGGAUAUCAUUUGUAAAUUCGAUGAGAAGGGUAGAUGUCUUACACGACGUGUUACAUGAGGAUCACCCAUGUU [SameState NG1 #7] (Eterna round: R96, puzzle: Same State NG 1)

>  <Discrete Label>
1

$$$$
>  <Sequence Record>
UGGAUCUAGGCUUGCCUGGGUCCAUGCUGACAUGAGGAUCACCCAUGUGCAUCCUACAAGCUUUUUGCUUGUCUGUC (Eterna round: R96, puzzle: Sensor for hsa-mir-208a)

>  <Discrete Label>
1

$$$$
>  <Sequence Record>
UACCUACCAGGAGGAUAUACAAACCCGAAAGGAGUAGAAGGCCUGAGUACUAACAUGAGGAUCACCCAUGUAGCGCCAGUUCGC [Eternabot solution 10] (Eterna round: R96, puzzle: Same State NG 1)

>  <Discrete Label>
0

$$$$
>  <Sequence Record>
UGGUACAUGGGAGGAUAUGGGCAAGAGACAUGAGGAUCACCCAUGUAUUAAAAGCCGAAAGGCAUCUAGAAGGCCCAUGUACCU [JL SSNG1 3.86] (Eterna round: R96, puzzle: Same State NG 2)

>  <Discrete Label>
0

$$$$
>  <Sequence Record>
AUUGCUUACGCAGGAUAUGAUGCGAAAAUUGCGUCAGAAGGGUGAAGUGACUCAUUGCAACAGGACAUGAGGAUCACCCAUGUC [SameState NG1 #90] (Eterna round: R96, puzzle: Same State NG 1)

>  <Discrete Label>
1

$$$$
>  <Sequence Record>
GUGGUCAGACAUGAGGAUCACCCAUGUGGAAUAAAUAAGGGAAAGGAUAUAAAAUAUAGGAUAUAUUAGAAGGUUCGGUUGGUG (Eterna round: R96, puzzle: Same State NG 3)

>  <Discrete Label>
1

$$$$
>  <Sequence Record>
GCGGAGAGGUAAGGAUAUCCAUGGAAGAAACAUGAGGAUCACCCAUGUAGGAAGAAGACUAGGAGGGAGAAGGUACCGGGACGC [AK SSNG2-V2-20.1] (Eterna round: R96, puzzle: Same State NG 2)

>  <Discrete Label>
0

$$$$
>  <Sequence Record>
AGAGCCGGCACCGAGGAUAUUCAUAUUAAAACAUGAGGAUCACCCAUGUAGGCCAGAAGGCCUUGGGAGAAGGCGGAUCGGCUCG [Xeonanis - 7] (Eterna round: R96, puzzle: Same State 2)

>  <Discrete Label>
0

$$$$
